The entries below are paired with their reported melting point.

Compound | melting point
CC(=O)Nc1ncc(CN2CCC(C(=O)NC3CCCCC3)CC2)s1 [Compound B-5] | 231 to 232 °C
COc1ccc(CNC(=O)C=C2CCN(Cc3cnc(NC(C)=O)s3)CC2)cc1 [Compound C-7] | 222 to 224 °C
CC(=O)Nc1ncc(CN2CCN(CC(=O)Nc3ccc(Cl)cc3Br)CC2)s1 [Compound A-13] | 212 to 213 °C
CC(=O)Nc1ncc(CN2CCN(CC(=O)Nc3cc(C)ccn3)CC2)s1 [Compound A-18] | 210 to 211 °C
CC(=O)Nc1ncc(CN2CCC(=CC(=O)NC3CCCCC3)CC2)s1 [Compound C-8] | 222 to 224 °C
CC(=O)Nc1ncc(CN2CCC(C(=O)Nc3cnccn3)CC2)s1 [Compound B-4] | 178 to 180 °C
COc1ccc(NC(=O)CN2CCN(Cc3cnc(NC(C)=O)s3)CC2)cc1 [Compound A-7] | 217 to 220 °C
CC(=O)Nc1ncc(CN2CCC(C(=O)Nc3ccc4ncccc4c3)CC2)s1 [Compound B-6] | 234 to 236 °C
CC(=O)Nc1ncc(CN2CCC(=CC(=O)Nc3ccc(F)cc3)CC2)s1 [Compound C-2] | 189 to 191 °C
CC(=O)Nc1ncc(CN2CCN(CC(=O)Nc3ccc(N4CCN(C(C)=O)CC4)cc3)CC2)s1 [Compound A-36] | 180 to 182 °C
CC(=O)Nc1ncc(CN2CCN(CC(=O)Nc3ccc(F)cc3)CC2C)s1 (centres unmarked) [Compound A-33] | 102 to 105 °C
CC(=O)Nc1ncc(CN2CCN(CC(=O)Nc3ccc4nccnc4c3)CC2)s1 [Compound A-23] | 234 to 235 °C
CC(=O)Nc1ncc(CN2CCN(CC(=O)Nc3nc4ccccc4[nH]3)CC2)s1 [Compound A-26] | 233 to 236 °C
CC(=O)Nc1ncc(CN2CCC(C(=O)Nc3ccc(C(C)C)cc3)CC2)s1 [Compound B-3] | 257 to 258 °C
COc1ccc(CNC(=O)C2CCN(Cc3cnc(NC(C)=O)s3)CC2)cc1 [Compound B-8] | 215 to 217 °C
CC(=O)Nc1ncc(CN2CCN(CC(=O)Nc3nc4c(Cl)cccc4s3)CC2)s1 [Compound A-30] | 255 to 257 °C
CC(=O)Nc1ncc(CN2CCN(CC(=O)NCc3ccc(-c4ccccc4)cc3)CC2C)s1 (centres unmarked) [Compound A-41] | 215 to 216 °C
CC(=O)Nc1ncc(CN2CCN(CC(=O)Nc3ccc(C)cc3)CC2)s1 [Compound A-3] | 213 to 217 °C
CC(=O)Nc1ncc(CN2CCN(CC(=O)Nc3ccc(Cc4ccccc4)cc3)CC2C)s1 (centres unmarked) [Compound A-39] | 193 to 195 °C
CC(=O)Nc1ncc(CN2CCN(CC(=O)NC3CCCCC3)CC2C)s1 (centres unmarked) [Compound A-35] | 184 to 187 °C
CC(=O)Nc1ncc(CN2CCC(C(=O)NC(C)c3ccc4c(c3)OCO4)CC2)s1 (centres unmarked) [Compound B-9] | 211 to 213 °C
CC(=O)Nc1ncc(CN2CCCC(C(=O)Nc3ccc(F)cc3)C2)s1 (centres unmarked) [Compound B-17] | 127 to 129 °C
CC(=O)Nc1ncc(CN2CCN(CC(=O)Nc3ccccc3C)CC2)s1 [Compound A-4] | 194 to 196 °C
CC(=O)Nc1ncc(CN2CCN(CC(=O)NCc3ccc(-c4ccccc4)cc3)CC2)s1 [Compound A-40] | 167 to 170 °C
CC(=O)Nc1ncc(CN2CCC(C(=O)OC(C)c3ccc4c(c3)OCO4)CC2)s1 (centres unmarked) [Compound B-13] | 215 to 217 °C
CC(=O)Nc1ncc(CN2CCC(=CC(=O)Nc3ccccc3)CC2)s1 [Compound C-1] | 184 to 185 °C
CCOc1ccc2nc(NC(=O)CN3CCN(Cc4cnc(NC(C)=O)s4)CC3)sc2c1 [Compound A-29] | 244 to 246 °C
COc1cccc(NC(=O)CN2CCN(Cc3cnc(NC(C)=O)s3)CC2)c1 [Compound A-9] | 210 to 212 °C
CC(=O)Nc1ncc(CN2CCCC(C(=O)NC3CCCCC3)C2)s1 (centres unmarked) [Compound B-19] | 265 to 267 °C
CC(=O)Nc1ncc(CN2CCC(C(=O)Nc3ccc(Cl)cc3)CC2)s1 [Compound B-2] | 258 to 260 °C
CC(=O)Nc1ncc(CN2CCC(C(=O)NCc3ccccc3)CC2)s1 [Compound B-7] | 176 to 178 °C
CC(=O)Nc1ncc(CN2CCN(CC(=O)Nc3ccc4ncccc4c3)CC2)s1 [Compound A-22] | 248 to 250 °C
CC(=O)Nc1ncc(CN2CCN(CC(=O)Nc3ccc(C(C)C)cc3)CC2)s1 [Compound A-6] | 173 to 176 °C
CC(=O)Nc1ncc(CN2CCN(CC(=O)Nc3ccc(Cl)cc3)CC2)s1 [Compound A-12] | 232 to 236 °C
CC(=O)Nc1ncc(CN2CCN(CC(=O)N(C)c3ccccc3)CC2)s1 [Compound A-31] | 208 to 210 °C
